What Ratio IC50 was measured for each of the following?
Species: Homo sapiens
measurement.notes: Selectivity index, ratio of IC50 for recombinant human MAO-A to IC50 for recombinant human MAO-B

{"compound": "C#CCNC1CCc2c(OCCc3cccc(NC(=O)c4ccc(Cl)cc4)c3)cccc21 (stereo unspecified)", "readout": "Ratio IC50", "value.observed": 466}
{"compound": "C#CCNC1CCc2c(OCCCOc3ccc(CC)cc3)cccc21 (stereo unspecified)", "readout": "Ratio IC50", "value.observed": 2.99}
{"compound": "C#CCNC1CCc2c(OCCOc3cccc(NC(C)=O)c3)cccc21 (stereo unspecified)", "readout": "Ratio IC50", "value.observed": 1.5}

Dear colleague, could you please provide Ratio IC50 for the compounds listed below?
1. C#CCNC1CCc2c(OCc3cccc(Cl)c3)cccc21 (stereo unspecified)
2. C#CCNC1CCc2c(OCCOc3ccccc3)cccc21 (stereo unspecified)
3. C#CCNC1CCc2c(OCc3ccc(F)cc3)cccc21 (stereo unspecified)

**Result**
1: 21.2; 2: 3.08; 3: 4.17

----------
Organism: Homo sapiens
measurement.notes: Selectivity index, ratio of IC50 for recombinant human MAO-A to IC50 for recombinant human MAO-B
Tick t if Ratio IC50 is 8 or greater. Tick f if Ratio IC50 is less than 8.

Below are worked cases with known answers.
{"compound": "C#CCNC1CCc2c(OCc3ccc(C(F)(F)F)cc3)cccc21 (stereo not drawn)", "label": "t"}
{"compound": "C#CCNC1CCc2c(OCCOc3cccc4ccccc34)cccc21 (stereo not drawn)", "label": "t"}
{"compound": "C#CCNC1CCc2c(OCCCOc3cc(C)c(Cl)c(C)c3)cccc21 (stereo not drawn)", "label": "t"}

**Query** Check this compound for Ratio IC50 at or above 8: C#CCNC1CCc2c(OCc3cccc(Br)c3)cccc21 (stereo not drawn)
**Result** t

**Query** Check this compound for Ratio IC50 at or above 8: C#CCNC1CCc2c(OCCc3cccc(Cl)c3)cccc21 (stereo not drawn)
**Result** t

**Query** Check this compound for Ratio IC50 at or above 8: C#CCNC1CCc2c(OCc3ccc(F)c(F)c3)cccc21 (stereo not drawn)
**Result** f

**Query** Check this compound for Ratio IC50 at or above 8: C#CCNC1CCc2c(OCCc3ccc(Cl)cc3)cccc21 (stereo not drawn)
**Result** f

----------
What IC50 was measured for each of the following?
system.tested: Amine oxidase [flavin-containing] A (Homo sapiens, UniProt P21397)
measurement.notes: Inhibition of recombinant human MAO-A using p-tyramine as substrate preincubated for 15 mins followed by substrate addition measured over 15 mins by Amplex red reagent-based fluorimetric method
Give bare numbers, in µM.

{"compound": "C#CCNC1CCc2c(OCCOc3ccccc3)cccc21 (stereo not given)", "unit.string": "µM", "value.observed": 14.1}

Dear colleague, could you please provide IC50 for the compounds listed below?
1. C#CCNC1CCc2c(OCc3cccc(Br)c3)cccc21 (stereo not given)
2. C#CCNC1CCc2c(OCCCOc3ccc(C(C)C)cc3)cccc21 (stereo not given)
3. C#CCNC1CCc2c(OCCc3ccccc3)cccc21 (stereo not given)
4. C#CCNC1CCc2c(OCc3ccc(F)cc3)cccc21 (stereo not given)
5. C#CCNC1CCc2c(OCc3cccc(Cl)c3)cccc21 (stereo not given)
6. C#CCNC1CCc2c(OCCOc3cccc(NC(C)=O)c3)cccc21 (stereo not given)

**Result**
[9.55, 42.7, 9.1, 7.8, 7, 8.3]

----------
What log10 of IC50 was measured for each of the following?
system.tested: Amine oxidase [flavin-containing] B (Homo sapiens)
Sequence (P27338 whole entry): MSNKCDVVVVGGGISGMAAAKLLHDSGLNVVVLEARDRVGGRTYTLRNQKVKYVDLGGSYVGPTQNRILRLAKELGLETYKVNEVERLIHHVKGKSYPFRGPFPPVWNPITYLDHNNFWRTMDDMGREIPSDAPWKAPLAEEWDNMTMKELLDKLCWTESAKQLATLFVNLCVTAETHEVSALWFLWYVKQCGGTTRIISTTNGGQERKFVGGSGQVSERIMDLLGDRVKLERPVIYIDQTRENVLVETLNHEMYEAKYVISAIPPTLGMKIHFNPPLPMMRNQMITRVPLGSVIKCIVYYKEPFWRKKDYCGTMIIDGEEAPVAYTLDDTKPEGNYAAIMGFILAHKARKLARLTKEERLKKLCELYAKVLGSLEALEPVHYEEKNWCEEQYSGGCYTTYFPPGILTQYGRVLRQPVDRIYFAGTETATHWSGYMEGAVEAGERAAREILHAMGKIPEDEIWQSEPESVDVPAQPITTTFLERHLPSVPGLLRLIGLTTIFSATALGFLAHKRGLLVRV
measurement.notes: Inhibition of recombinant human MAO-B using p-tyramine as substrate preincubated for 15 mins followed by substrate addition measured over 15 mins by Amplex red reagent-based fluorimetric method
Plainly stated, the numbers are log10 of IC50 given in µM.

{"compound": "C#CCNC1CCc2c(OCc3cccc(Cl)c3)cccc21 (centres undefined)", "log10 of IC50": -0.48}
{"compound": "C#CCNC1CCc2c(OCCc3ccccc3)cccc21 (centres undefined)", "log10 of IC50": 0.59}
{"compound": "C#CCNC1CCc2c(OCCCOc3cc(C)c(Cl)c(C)c3)cccc21 (centres undefined)", "log10 of IC50": 0.84}
{"compound": "C#CCNC1CCc2c(OCCCOc3ccc(C(C)C)cc3)cccc21 (centres undefined)", "log10 of IC50": 0.73}
{"compound": "C#CCNC1CCc2c(OCCCOc3ccc(CC)cc3)cccc21 (centres undefined)", "log10 of IC50": 1.02}

Dear colleague, could you please provide log10 of IC50 for the compounds listed below?
1. C#CCNC1CCc2c(OCc3cccc(Br)c3)cccc21 (centres undefined)
2. C#CCNC1CCc2c(OCCCOc3cccc(I)c3)cccc21 (centres undefined)
3. C#CCNC1CCc2c(OCc3ccccc3)cccc21 (centres undefined)
4. C#CCNC1CCc2c(OCc3ccc4ccccc4c3)cccc21 (centres undefined)
5. C#CCNC1CCc2c(OCc3cccc(C)c3)cccc21 (centres undefined)
6. C#CCNC1CCc2c(OCCOc3cccc(NC(=O)CCl)c3)cccc21 (centres undefined)

**Result**
-0.19
1.26
0.29
0.79
-0.26
0.84

----------
Organism: Homo sapiens
measurement.notes: Selectivity index, ratio of IC50 for recombinant human MAO-A to IC50 for recombinant human MAO-B
Tick t if Ratio IC50 is 8 or greater. Tick f if Ratio IC50 is less than 8.

**Query** Check this compound for Ratio IC50 at or above 8: C#CCNC1CCc2c(OCCOc3cccc(NC(=O)CCl)c3)cccc21 (stereo unspecified)
**Result** t

**Query** Check this compound for Ratio IC50 at or above 8: C#CCNC1CCc2c(OCc3cccc(F)c3)cccc21 (stereo unspecified)
**Result** t

**Query** Check this compound for Ratio IC50 at or above 8: C#CCNC1CCc2c(OCc3cccc(C)c3)cccc21 (stereo unspecified)
**Result** t

**Query** Check this compound for Ratio IC50 at or above 8: C#CCNC1CCc2c(OCc3ccc(C)cc3)cccc21 (stereo unspecified)
**Result** f

----------
system.tested: Amine oxidase [flavin-containing] A (Homo sapiens, UniProt P21397)
Sequence (P21397 whole entry): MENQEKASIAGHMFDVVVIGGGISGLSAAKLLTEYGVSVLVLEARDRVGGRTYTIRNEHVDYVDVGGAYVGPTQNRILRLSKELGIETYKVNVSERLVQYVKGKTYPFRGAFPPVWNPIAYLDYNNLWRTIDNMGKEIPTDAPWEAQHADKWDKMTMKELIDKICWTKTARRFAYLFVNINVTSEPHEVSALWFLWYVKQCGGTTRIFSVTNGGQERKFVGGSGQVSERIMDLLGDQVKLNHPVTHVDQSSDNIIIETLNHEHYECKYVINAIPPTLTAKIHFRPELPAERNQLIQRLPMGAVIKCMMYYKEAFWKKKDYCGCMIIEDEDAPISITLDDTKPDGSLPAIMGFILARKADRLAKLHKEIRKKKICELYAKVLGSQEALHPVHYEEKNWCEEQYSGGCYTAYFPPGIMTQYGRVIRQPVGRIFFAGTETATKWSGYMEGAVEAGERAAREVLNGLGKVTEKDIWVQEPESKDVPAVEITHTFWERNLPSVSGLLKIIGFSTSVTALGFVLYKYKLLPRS
measurement.notes: Inhibition of recombinant human MAO-A using p-tyramine as substrate preincubated for 15 mins followed by substrate addition measured over 15 mins by Amplex red reagent-based fluorimetric method
What pIC50 was measured for each of the following?
Numbers only, as −log10 of the molar value.

Examples with answers:
{"molecule": "C#CCNC1CCc2c(OCc3cccc(C)c3)cccc21 (stereo not drawn)", "system.tested": "Amine oxidase [flavin-containing] A (Homo sapiens, UniProt P21397)", "value.observed": 4.95}
{"molecule": "C#CCNC1CCc2c(OCCc3cccc(NC(=O)c4ccc(Cl)cc4)c3)cccc21 (stereo not drawn)", "system.tested": "Amine oxidase [flavin-containing] A (Homo sapiens, UniProt P21397)", "value.observed": 5.03}
{"molecule": "C#CCNC1CCc2c(OCc3ccccc3)cccc21 (stereo not drawn)", "system.tested": "Amine oxidase [flavin-containing] A (Homo sapiens, UniProt P21397)", "value.observed": 4.81}
{"molecule": "C#CCNC1CCc2c(OCc3cccc(F)c3)cccc21 (stereo not drawn)", "system.tested": "Amine oxidase [flavin-containing] A (Homo sapiens, UniProt P21397)", "value.observed": 5.28}
{"molecule": "C#CCNC1CCc2c(OCc3ccc(F)c(F)c3)cccc21 (stereo not drawn)", "system.tested": "Amine oxidase [flavin-containing] A (Homo sapiens, UniProt P21397)", "value.observed": 5.14}
{"molecule": "C#CCNC1CCc2c(OCCCOc3ccc(CC)cc3)cccc21 (stereo not drawn)", "system.tested": "Amine oxidase [flavin-containing] A (Homo sapiens, UniProt P21397)", "value.observed": 4.50}

Dear colleague, could you please provide pIC50 for the molecules listed below?
1. C#CCNC1CCc2c(OCCc3ccc(Cl)cc3)cccc21 (stereo not drawn)
2. C#CCNC1CCc2c(OCc3ccc(C)cc3)cccc21 (stereo not drawn)

**Result**
4.99
5.36

Cited source: ChEMBL document CHEMBL4145484
